Target: Cytochrome P450 3A4 (Homo sapiens);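 further: confirmatory qHTS run detecting inhibitors and substrates of CYP3A4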
Sequence (P08684 whole entry): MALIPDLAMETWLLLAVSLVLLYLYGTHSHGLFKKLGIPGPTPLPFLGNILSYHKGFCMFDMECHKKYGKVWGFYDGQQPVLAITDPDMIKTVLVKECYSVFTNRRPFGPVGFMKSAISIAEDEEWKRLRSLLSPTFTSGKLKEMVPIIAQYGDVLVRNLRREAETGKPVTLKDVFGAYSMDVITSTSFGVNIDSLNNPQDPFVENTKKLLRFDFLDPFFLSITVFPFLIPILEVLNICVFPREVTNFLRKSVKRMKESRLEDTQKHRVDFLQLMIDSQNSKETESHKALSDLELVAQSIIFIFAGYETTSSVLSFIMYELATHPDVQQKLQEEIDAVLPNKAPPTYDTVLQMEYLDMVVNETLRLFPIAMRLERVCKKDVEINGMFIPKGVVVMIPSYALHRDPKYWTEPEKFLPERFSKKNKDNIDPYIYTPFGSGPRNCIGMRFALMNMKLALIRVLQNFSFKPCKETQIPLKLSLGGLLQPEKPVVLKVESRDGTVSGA
Settings: Potency
Structures can show the parent of a compound that is named as a salt.
Form field: AC50 (one value per entry).
observationType: AC50

In [3]: df
Out[3]:
                                   compound                       assayedtarget       experimentalvalue
0            CS(C)(=O)=O [DIMETHYL SULFONE]  Cytochrome P450 3A4 (Homo sapiens)    20 µM (inconclusive)
1  COC(c1ccccc1Br)C(C)/C=C/CCO (stereo not drawn)  Cytochrome P450 3A4 (Homo sapiens)  3.16 µM (inconclusive)
2         O=c1cc(-c2ccc(O)cc2)oc2cc(O)ccc12  Cytochrome P450 3A4 (Homo sapiens)  7.94 µM (inconclusive)
3  COc1cc(C)c(C(=O)Oc2cc(C)c(C(=O)O)c(O)c2C)c(OC)c1C [DIFFRACTAIC ACID]  Cytochrome P450 3A4 (Homo sapiens)  25.1 µM (inconclusive)
4  CN1CCCCC1c1ccc(-c2cccnc2)nc1 (stereo not drawn) [ANABASAMINE HYDROCHLORIDE]  Cytochrome P450 3A4 (Homo sapiens)  12.6 µM (inconclusive)
5  COC(C)(C)CCCC(C)C/C=C/C(C)=C/C(=O)OC(C)C (stereo not drawn)  Cytochrome P450 3A4 (Homo sapiens)  31.6 µM (inconclusive)
6  CCCCC(CC)COC(=O)CCCCC(=O)OCC(CC)CCCC (stereo not drawn)  Cytochrome P450 3A4 (Homo sapiens)    20 µM (inconclusive)
7                   Nc1ccc(Oc2ccc(N)cc2)cc1  Cytochrome P450 3A4 (Homo sapiens)  31.6 µM (inconclusive)

---

Target: Serine/threonine-protein kinase TAO1 (Homo sapiens)
Sequence (Q7L7X3 whole entry): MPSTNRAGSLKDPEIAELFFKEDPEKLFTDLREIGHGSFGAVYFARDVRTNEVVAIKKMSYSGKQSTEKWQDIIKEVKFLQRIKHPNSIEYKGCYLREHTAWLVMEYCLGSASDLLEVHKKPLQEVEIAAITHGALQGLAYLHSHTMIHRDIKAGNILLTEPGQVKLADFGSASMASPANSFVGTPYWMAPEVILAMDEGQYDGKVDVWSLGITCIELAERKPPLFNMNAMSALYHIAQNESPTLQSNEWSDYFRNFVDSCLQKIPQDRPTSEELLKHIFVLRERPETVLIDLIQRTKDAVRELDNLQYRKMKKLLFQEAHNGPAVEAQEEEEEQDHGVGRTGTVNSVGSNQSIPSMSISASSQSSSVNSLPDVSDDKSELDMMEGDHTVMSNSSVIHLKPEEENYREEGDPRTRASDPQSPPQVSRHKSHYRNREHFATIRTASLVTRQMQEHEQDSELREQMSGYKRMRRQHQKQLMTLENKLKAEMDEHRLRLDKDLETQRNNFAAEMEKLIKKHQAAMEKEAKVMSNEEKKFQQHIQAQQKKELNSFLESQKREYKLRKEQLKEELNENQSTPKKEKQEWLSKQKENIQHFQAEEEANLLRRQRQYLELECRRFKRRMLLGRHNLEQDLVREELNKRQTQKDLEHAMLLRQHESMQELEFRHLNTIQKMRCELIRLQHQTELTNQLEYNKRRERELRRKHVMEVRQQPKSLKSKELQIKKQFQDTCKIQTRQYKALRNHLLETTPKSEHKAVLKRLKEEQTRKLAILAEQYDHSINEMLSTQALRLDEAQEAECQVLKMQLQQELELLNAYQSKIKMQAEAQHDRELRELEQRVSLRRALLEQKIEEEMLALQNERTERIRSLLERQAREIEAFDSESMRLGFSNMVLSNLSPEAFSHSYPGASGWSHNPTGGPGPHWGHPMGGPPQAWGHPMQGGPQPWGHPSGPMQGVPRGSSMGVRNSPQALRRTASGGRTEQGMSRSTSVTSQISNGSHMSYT
Format: functional
Calls of active or inactive are those of the source.
Some compounds, each annotated with its measured Ki.
observationType: Ki

In [3]: df
Out[3]:
                                   compound  observationtype     experimentalvalue
0  O=C(Nc1cccc(C(F)(F)F)n1)Nc1ccnc2cc(Cl)ccc12               Ki  > 6.31 µM (inactive)
1  CCC1CC(NS(=O)(=O)C2CC2)CC1c1ncc2cnc3[nH]ccc3n12 (centres undefined)               Ki     > 2 µM (inactive)
2                 O=c1[nH]c2cc(Br)cnc2[nH]1               Ki      12.6 µM (active)
3  O=C(Nc1cccc(C(F)(F)F)n1)Nc1ccnc2cc(OC(F)F)ccc12               Ki  > 6.31 µM (inactive)

---

Reported IC50 values for a set of compounds
Target: Type-1 angiotensin II receptor (Homo sapiens)
Sequence (P30556 whole entry): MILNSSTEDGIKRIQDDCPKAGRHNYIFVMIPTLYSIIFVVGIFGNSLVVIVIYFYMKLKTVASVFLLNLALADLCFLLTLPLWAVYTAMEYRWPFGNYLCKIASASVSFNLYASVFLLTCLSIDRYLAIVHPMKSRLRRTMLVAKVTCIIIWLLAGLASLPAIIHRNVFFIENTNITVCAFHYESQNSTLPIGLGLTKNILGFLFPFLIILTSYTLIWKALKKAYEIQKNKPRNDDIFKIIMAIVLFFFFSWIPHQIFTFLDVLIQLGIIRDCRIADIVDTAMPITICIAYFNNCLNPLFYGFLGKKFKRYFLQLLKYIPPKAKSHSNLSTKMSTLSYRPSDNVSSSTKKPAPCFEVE
Assay: AT1 receptor antagonists, dose response, selectivity assay for APJ receptor antagonist project, cell-based, uHTS hits (AID 463214);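 further: antagonist potency against angiotensin II stimulated AT1 response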
Type: functional
Calls of active or inactive are those of the source.
observationType: IC50

                       smilesrepresentation                             assayedtarget     experimentalvalue
0             Oc1cccc2ccc(/C=C/c3cccs3)nc12  Type-1 angiotensin II receptor (Homo sapiens)      10.3 µM (active)
1          NC(=O)c1ccccc1NCC(=O)c1ccc(F)cc1  Type-1 angiotensin II receptor (Homo sapiens)  21.6 µM (not active)
2  C=CCn1c(=O)/c(=C2/Sc3cc(OC)ccc3N2C)s/c1=C1\C(=O)N(CC)C(=S)N1C  Type-1 angiotensin II receptor (Homo sapiens)  > 40 µM (not active)
3          Fc1ccc(NC(S)=Nc2ccc(Cl)cc2Cl)cc1  Type-1 angiotensin II receptor (Homo sapiens)  > 40 µM (not active)

Every entry's value here was drawn from ChEMBL document CHEMBL1201862.
